# System: LOC_OS01G14860-cb001;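 further: purified Escherichia coli-expressed rice kinase domain construct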
# assayNotes: thermal shift delta Tm vs DMSO control; higher = stronger stabilization (binding)
# reportedConditions: 12.5 µM; protein concentration 2 µM
Counter-ions that a name gives are not always drawn.
Can you tell me thermal shift delta Tm for the items I'm about to list?
Please reply with the bare figure in °C and do not write the unit itself.

I'd like to know its thermal shift delta Tm. The compound in question is COc1cc(F)c(F)c(Nc2ccc(I)cc2F)c1NS(=O)(=O)C1(C[C@H](O)CO)CC1 [Refametinib (RDEA119, Bay 86-9766)] 0.61

I'd like to know its thermal shift delta Tm. The compound in question is "OCCn1cc(-c2ccc3c(c2)CC/C3=N\O)c(-c2ccncc2)n1" 0.01

I'd like to know its thermal shift delta Tm. The compound in question is COc1cc2c3cc1Oc1c(OC)c(OC)cc4c1[C@@H](Cc1ccc(O)c(c1)Oc1ccc(cc1)C[C@@H]3N(C)CC2)N(C)CC4 [Berbamine (dihydrochloride)] -0.18

I'd like to know its thermal shift delta Tm. The compound in question is "Oc1cc(CNC(=S)/C=C/c2cc(O)c(O)c(Br)c2)cc(O)c1O" 2.93

Recorded values, source the supplement of paper PMC9694430.
